Target: Ubiquitin carboxyl-terminal hydrolase 30 (Homo sapiens) (UniProt Q70CQ3)
Sequence (Q70CQ3 whole entry, looked up): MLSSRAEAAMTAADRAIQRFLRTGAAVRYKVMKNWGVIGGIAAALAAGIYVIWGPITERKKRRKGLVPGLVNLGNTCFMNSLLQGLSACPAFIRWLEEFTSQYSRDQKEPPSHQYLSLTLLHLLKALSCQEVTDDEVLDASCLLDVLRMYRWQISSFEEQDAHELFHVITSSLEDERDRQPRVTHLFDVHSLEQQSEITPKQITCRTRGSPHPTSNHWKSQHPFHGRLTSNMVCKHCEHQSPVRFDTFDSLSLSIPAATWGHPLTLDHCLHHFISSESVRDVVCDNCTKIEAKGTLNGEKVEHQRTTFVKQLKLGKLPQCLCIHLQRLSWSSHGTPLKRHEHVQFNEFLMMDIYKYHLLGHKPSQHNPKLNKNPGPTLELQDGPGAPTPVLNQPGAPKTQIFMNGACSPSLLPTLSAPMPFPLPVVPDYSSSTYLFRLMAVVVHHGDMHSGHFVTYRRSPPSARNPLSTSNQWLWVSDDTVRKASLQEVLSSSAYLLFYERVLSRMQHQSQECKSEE
Assay: inhibitors of ubiquitin-specific protease 30 deubiquitylating enzyme, concentration dependence, in vitro biochemical, validation of primary hits (AID 1645865)
Details: purified USP30, Ub-rhodamine cleavage, fluorescence, 2 h
Calls of active or inactive are those of the source.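 How the source made its calls: active means maximal inhibition of the USP30 enzyme reaching 30% or more across the dose series; inactive means the rest.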
Log the outcome using a class from yes (1) = active, no (0) = inactive

Exam item: Entry Cc1ccc(NC(=O)CNC(=O)c2cc3ccccc3o2)cc1 : call = ?
Marked response: yes (1)

Exam item: // next record CCOc1ccc2c(c1)c(=O)c(C(=O)c1ccc(C)cc1)cn2CC(=O)Nc1ccc(OC)c(OC)c1
Marked response: yes (1)

Exam item: Lookup COc1cc(Cl)c(C)cc1NC(=O)Cn1c(=O)n(CC(=O)NCc2ccco2)c(=O)c2ccccc21
Marked response: yes (1)

Exam item: Record: CCc1ccc(OCc2nnc(SCC(=O)Nc3ccccc3OC)n2Cc2ccccc2)cc1
Marked response: no (0)

Exam item: Check O=C1CC(C(=O)Nc2ccc(F)cc2)n2nc(SCc3ccccc3)nc2N1 (stereo unspecified) too.
Marked response: yes (1)

Exam item: Further, for Cc1noc(C)c1CN1CC[C@H]2O[C@H](C(=O)NCc3ccco3)CC[C@H]21 ?
Marked response: no (0)

Exam item: Next up: Cc1ccc(OC(=O)c2cn(-c3ccccc3)nc2-c2cccnc2)cc1
Marked response: no (0)

Exam item: Can you check Fc1ccccc1Cc1nc(-c2ccc3nncn3c2)no1 next?
Marked response: no (0)

Exam item: Also COc1ccc(NC(=O)c2nnn(-c3ccccc3F)c2C)cc1OC , if possible.
Marked response: no (0)

Exam item: What about this compound? COc1ccc(C(C(=O)NC2CCCCC2)N(C(=O)CCCC(=O)Nc2ccccn2)c2ccccc2C)cc1 (stereo unspecified)
Marked response: yes (1)

Exam item: Another compound to look at: CC(CCc1ccccc1)NC(=O)C(=O)c1cn(CC(=O)N2CCOCC2)c2ccccc12 (stereo unspecified)
Marked response: no (0)

Exam item: Param item: CC(=O)[C@H]1c2c(c(O)c3c(O)cccc3c2-c2c3c(c(O)c4c(O)cccc24)C(=O)C[C@](C)(O)[C@H]3C(C)=O)C(=O)C[C@]1(C)O
Marked response: no (0)

Exam item: Another: CC1=C(C(=O)Nc2ccccc2C)C(c2ccc(OCc3ccccc3F)cc2)n2ncnc2N1 (stereo unspecified)
Marked response: yes (1)

Exam item: Also, O=S(=O)(c1cccc(F)c1)N1CCN(c2nnnn2-c2ccccc2)CC1 please.
Marked response: yes (1)

Exam item: Field entry: CCCC(=O)c1c[nH]c(C(=O)NCc2ccc(F)cc2)c1
Marked response: yes (1)

Exam item: // repeat for O=C(Nc1ccc2c(c1)OCCO2)c1cccc2nc3ccccc3nc12 and report
Marked response: yes (1)

Exam item: Next compound: Cc1cc(C)cc(NC(=O)CSc2ccc(-c3ccncc3)nn2)c1
Marked response: yes (1)

Exam item: COc1ccc(-c2cc3nc([C@@H](C)NC(=O)c4ccc5c(c4)OCO5)nn3cn2)cc1 ?
Marked response: no (0)

Exam item: Now consider CCCCNc1nc2c(-c3ccccc3)nnn2c2ccccc12 .
Marked response: yes (1)

Exam item: Same read-out for Cc1nn(Cc2ccccc2)c(C)c1C(=O)NC1CCCc2ccccc21 (stereo unspecified) ?
Marked response: no (0)

Exam item: Likewise for Cc1ccc(NC(=O)c2ccc(N3CCOCC3)nn2)cc1F ?
Marked response: yes (1)

====

Molecular target: Ubiquitin carboxyl-terminal hydrolase 30 (Homo sapiens)
Assay: inhibitors of ubiquitin-specific protease 30 deubiquitylating enzyme, concentration dependence, in vitro biochemical, validation of primary hits (AID 1645865)
Conditions: purified USP30, Ub-rhodamine cleavage, fluorescence, 2 h
The source made the active and inactive calls.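 How the source made its calls: active means maximal inhibition of the USP30 enzyme reaching 30% or more across the dose series; inactive means the rest.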
Lab note: assign the record to one of active, inactive

Exam item: Outcome logged for CC(C(=O)Nc1ccccc1)n1cnc2nc(N3CCCCC3)ncc2c1=O (stereo not given) in this assay:
Marked response: inactive

Exam item: # iterate: Cc1cc(N2CCN(c3ncccn3)CC2)nc2ccc(NC(=O)/C=C/c3ccccc3Cl)cc12
Marked response: active

Exam item: Also CCC(=O)Nc1ccccc1-c1nc2ccccc2n(CC(=O)Nc2cc(OC)ccc2OC)c1=O , if possible.
Marked response: active

Exam item: Would you mind doing O=C(NCc1ccc(Cl)cc1)Nc1cccc2ccccc12 as well?
Marked response: active

Exam item: // repeat for COc1ccccc1-c1nc2c3c(ncn2n1)Oc1c(c(C)nn1-c1ccccc1)C3c1cccnc1 (stereo not given) and report
Marked response: active

====

Molecular target: Ubiquitin carboxyl-terminal hydrolase 30 (Homo sapiens) (UniProt Q70CQ3)
Assay: inhibitors of ubiquitin-specific protease 30 deubiquitylating enzyme, concentration dependence, in vitro biochemical, validation of primary hits (AID 1645865)
Conditions: purified USP30, Ub-rhodamine cleavage, fluorescence, 2 h
Active and inactive are the calls of the source.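 Rule for the calls: active = maximal inhibition of the USP30 enzyme reaching 30% or more across the dose series; inactive = the rest.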
Thanks in advance; please answer with one of these: active, inactive

Exam item: Per the records of this test, what outcome belongs to CCOc1cc(N2CCOCC2)c(OCC)cc1NC(=O)c1cc(-c2ccncc2)nc2ccccc12 ?
Marked response: active

Exam item: Consider next the compound COc1ccc(OC)c(NC(=O)c2cc(Cl)ccc2OC)c1 in the same way.
Marked response: active

Exam item: What do you get for Cc1c(-c2ccc(C#N)cc2)oc2ccc(Br)cc2c1=O ?
Marked response: active

Exam item: Request: COc1cc(C(=O)NC(Cc2ccccc2)c2nc3ccccc3[nH]2)cc(OC)c1OC (stereo not given)
Marked response: active

Exam item: Can you check Cc1cccc(-c2nc3n(CC(=O)Nc4ccc(Cl)cc4)c(C)cc(=O)n3n2)c1 next?
Marked response: active

Exam item: Would you kindly repeat that for CCC[C@H]1O[C@@H]2CC(=O)O[C@@H]2C2=C1C(=O)c1c(O)cccc1C2=O ?
Marked response: inactive

Exam item: What about O=S(=O)(O)c1cc2cc3ccccc3cc2[nH]1 ?
Marked response: inactive

Exam item: Thanks! And CCC(=O)N1c2ccccc2NC2=C(C(=O)CC(c3ccccc3OCc3ccccc3)C2)C1c1ccccc1 (stereo not given) ?
Marked response: active

Exam item: Moving on to Fc1cccc(Cn2cc(-c3noc(-c4cccnc4)n3)nn2)c1
Marked response: active

Exam item: Another compound to look at: O=C(Nc1ccc2c(c1)OCCO2)c1cc(CN2CCCC2)on1
Marked response: inactive

Exam item: Input Cc1c(-c2nnc(-c3ccccn3)o2)nnn1-c1cccc(Cl)c1
Marked response: active

Exam item: Try the compound CNC(=O)c1cc2c(=O)n3cccc(C)c3nc2n1Cc1ccccc1
Marked response: active

Exam item: // repeat for CN(c1ccccc1)c1nc(=O)n(CC(=O)Nc2ccc3c(c2)OCCO3)c2ccccc12 and report
Marked response: active

Exam item: Also COc1cc(Cn2cnc3c([nH]c4ccc(Br)cc43)c2=O)cc(OC)c1 ?
Marked response: active

Exam item: Next compound: Cn1c(-c2nnc(SCC(=O)Nc3ccccc3F)o2)cc2ccccc21
Marked response: active

Exam item: Another compound: O=C(Nc1ccccc1Cl)N(Cc1cc2cc3c(cc2[nH]c1=O)OCCO3)C1CCCCC1
Marked response: active

Exam item: And for COc1ccccc1-c1nc(-c2cn(-c3ccc(C)cc3)nn2)no1 ?
Marked response: active

Exam item: Note, next up: COc1cc(OC)cc(-c2nc(-c3cn(-c4cccc(F)c4)nn3)no2)c1
Marked response: active

Exam item: Same lookup for CCOc1ccc(NC(=O)Cn2c(=O)n(CCC(=O)NCc3ccccc3OC)c(=O)c3ccccc32)cc1 , please.
Marked response: active

Exam item: How about COc1cccc(-n2c(=O)[nH]c3c(C(N)=O)nc(-c4ccc(OCc5ccccc5)cc4)nc32)c1 ?
Marked response: inactive

Exam item: How about this compound: Cc1cc(O)c2c3c(c(O)cc2c1)C(=O)c1c(O)cccc1C3=O
Marked response: inactive

Exam item: Could you do the same for COc1ccc(NC(=O)C2[C@@H]3C(=O)N(C4CCCCC4)C(=O)[C@@H]3[C@H]3c4ccccc4C=CN23)cc1 (stereo not given in full) , please?
Marked response: inactive

Exam item: Entry Cc1cccc(NC(=O)CSc2ncnc3c2sc2nc(CC(C)C)c4c(c23)CCC4)c1 please
Marked response: active

Exam item: Same lookup for O=C(Cn1cnc2ccccc21)Nc1ccc2c(c1)CCC2 , please.
Marked response: active

Exam item: Moving on to the next compound: CC(C)=CCCC1(C)OC2=C(C(=O)c3cc(O)cc(O)c3C2=O)[C@H]2C=C(C)CC[C@H]21 (stereo not given in full)
Marked response: inactive

Exam item: Same again, this time with CN[C@H]1CC2(CCN(C(=O)CCCn3cccn3)CC2)OC[C@]1(C)O
Marked response: inactive

Exam item: Similarly, COC1=CC(=O)c2c(O)c3c(c(C)c2C1=O)C[C@@]1(O)[C@H](O[C@H]2CC[C@H](O[C@H]4C[C@@](C)(O)[C@H](OC(=O)c5c(C)ccc(C)c5O)[C@H](C)O4)[C@@H](C)O2)C(=O)C(C(C)=O)=C(O)[C@@]1(O)C3=O ?
Marked response: active

Exam item: Here is the next compound: O=C(CSc1ccc2nnc(-c3ccccc3)n2n1)N1CCCc2ccccc21
Marked response: active

Exam item: Okay, and Cc1ccn(-c2ccc(NC(=O)C3CCCCC3)cc2)n1 ?
Marked response: active

Exam item: What do you get for Cc1nnc(Sc2cc(C(=O)NCCN3CCCC3)c3ccccc3n2)s1 ?
Marked response: inactive

Exam item: Entry to check: Cc1cc(=O)c2c(O)oc(O)c3c(O)cc(=O)c1c32
Marked response: inactive

Exam item: What about COc1cc2c(cc1NC(=O)c1ccc(-n3cnnn3)cc1)oc1ccccc12 ?
Marked response: active

Exam item: Next: COc1ccccc1Nc1ncc(C(=O)NCCc2ccc(Cl)cc2)c2ccccc12
Marked response: active

Exam item: What would you report for O=C(Nc1cccn(Cc2c(Cl)cccc2Cl)c1=O)c1ccccc1[N+](=O)[O-] ?
Marked response: inactive

Exam item: What do we get for Cc1ccc(-n2nc(C(=O)Nc3ccc(C)cn3)c3ncn(C)c(=O)c32)cc1 ?
Marked response: active

Exam item: // query: Cc1cc(NCC2CC2)n2nc(Nc3cc(Cl)ccc3C)nc2n1
Marked response: active

Exam item: What do you have for CC1(C(=O)NCc2ccccc2)Cn2c(cc3ccccc32)C(=O)N1Cc1ccccc1 (stereo not given) ?
Marked response: inactive

Exam item: Try this compound too: CC(C)c1cc(Nc2cccc(F)c2)n2nc(-c3cccnc3)nc2n1
Marked response: active

Exam item: Next compound up: CCc1cccc2c(C(=O)COc3ccc(C#N)cc3)c[nH]c12
Marked response: active

Exam item: Lookup Fc1ccccc1N1CCN(c2ncc3c(n2)CCN(Cc2ccccn2)C3)CC1
Marked response: inactive
